Reference for the values: patent US20250345317A1

# Test system: SF-208
# Test Description: Growth inhibition, SRB assay, SF-208
# Assay type: cell-based
# Assay Context: Homo sapiens, SF-208, wild-type BRCA1/2, 48 hours
Quantity Name: IC50 (µM)
Numbers only, in µM.

# get_value(readout= IC50, system= SF-208) for CC[C@H]1CN(C)C2Cc3c([nH]c4ccccc34)/C(=N/Nc3ccc(Br)cn3)C[C@@H]1[C@@H]2C(=O)OC [COMP]
12.5

---

# Tested on: MCF-7
# Test Description: Growth inhibition, SRB assay, MCF-7
# Type: cell-based, human
# Assay Context: MCF-7, BRCA1 wild-type, 48 hours (second Table 2)
Quantity Name: pIC50
Answers are plain numbers, as −log10 of the molar value.

* [NH2][Pt]([NH2])([Cl])[Cl] [CDDP, cisplatin, reference compound] | 4.92

Note: attention shifts to another entry.
Which pIC50 reading was recorded for the molecule CCC1CN(C)[C@H]2Cc3c([nH]c4ccccc34)/C(=N/Nc3ccccc3)C[C@H]1[C@@H]2C(=O)OC (some centres unmarked) [TH2] ?
4.59

---

# Tested on: T47D
# Test Description: Growth inhibition, SRB assay, T47D
# Assay type: cell-based, human
# Assay Context: Homo sapiens, 48 h, wild-type BRCA1/2, 48 hours
# Method: […] In an embodiment, IC50 values were determined by Sulforhodamine B (SRB) or MTS [3-(4,5-dimethylthiazol-2-yl)-5-(3-carboxymethoxyphenyl)-2-(4-sulfophenyl)-2H-tetrazolium] assay in immortalized and PD-OVCA cells, respectively. […]
Quantity Name: pIC50
One number for each entry, as −log10 of the molar value.

* O=C(c1cc(Cc2n[nH]c(=O)c3ccccc23)ccc1F)N1CCN(C(=O)C2CC2)CC1 [Olaparib, olaparib, reference compound] | 4.52

The record that follows has no pIC50 shown yet.
Give T47D pIC50 for CC[C@H]1CN(C)C2Cc3c([nH]c4ccccc34)/C(=N/Nc3ccc(Br)cn3)C[C@@H]1[C@@H]2C(=O)OC [COMP]
4.94

---

# Tested on: Vcap
# Test Description: Growth inhibition, SRB assay, Vcap
# Assay type: cell-based
# Assay Context: Homo sapiens, wild-type BRCA1/2, 48 hours
Quantity Name: pIC50
One number for each entry, as −log10 of the molar value.

Bench note: what pIC50 did CC[C@H]1CN(C)C2Cc3c([nH]c4ccccc34)/C(=N/Nc3ccc(Br)cn3)C[C@@H]1[C@@H]2C(=O)OC show?
4.93

---

# Tested on: T47D
# Test Description: Growth inhibition, SRB assay, T47D
# Format: cell-based, human
# Assay Context: Homo sapiens, 48 h, BRCA1 wild-type, 48 hours (second Table 2)
# Description: […] In an embodiment, IC50 values were determined by Sulforhodamine B (SRB) or MTS [3-(4,5-dimethylthiazol-2-yl)-5-(3-carboxymethoxyphenyl)-2-(4-sulfophenyl)-2H-tetrazolium] assay in immortalized and PD-OVCA cells, respectively. […]
Quantity Name: pIC50
Numbers only, as −log10 of the molar value.

• CC[C@H]1CN(C)C2Cc3c([nH]c4ccccc34)/C(=N/NC(=S)NCc3ccccn3)C[C@H]1[C@@H]2C(=O)OC = 4.56
• CCC1CN(C)[C@H]2Cc3c([nH]c4ccccc34)/C(=N/Nc3ccccc3)C[C@H]1[C@@H]2C(=O)OC (some centres unmarked) = 4.64
• CCC1CN(C)[C@H]2Cc3c([nH]c4ccccc34)/C(=N/Nc3ccc(Br)cn3)C[C@H]1[C@@H]2C(=O)OC (some centres unmarked) = 4.63

Entry O=C(c1cc(Cc2n[nH]c(=O)c3ccccc23)ccc1F)N1CCN(C(=O)C2CC2)CC1 [Olaparib, olaparib, reference compound] : reported pIC50 = ?
4.52

---

# System: HeLa
# Test Description: Growth inhibition, SRB assay, HeLa
# Type: cell-based
# Assay Context: Homo sapiens, wild-type BRCA1/2, 48 hours
Quantity Name: IC50 (µM)
Numbers only, in µM.

Param item = CC[C@H]1CN(C)C2Cc3c([nH]c4ccccc34)/C(=N/Nc3ccc(Br)cn3)C[C@@H]1[C@@H]2C(=O)OC [COMP] ; retrieve measured IC50.
5.8

---

# System: PD-OVCA#62
# Test Description: Growth inhibition, MTS assay, PD-OVCA#62
# Format: cell-based, human
# Assay Context: PD-OVCA#62, wild-type BRCA1/2, 48 hours
Quantity Name: IC50 (µM)
Numbers only, in µM.

Quick check: IC50 of [NH2][Pt]([NH2])([Cl])[Cl] [CDDP, cisplatin, reference compound] ?
6.5

---

# Tested on: SK-BR-3
# Test Description: Growth inhibition, SRB assay, SK-BR-3
# Type: cell-based, human
# Assay Context: SK-BR-3, BRCA1 loss of heterozygosity, 48 hours (second Table 2)
So I've got a bunch of compounds here, and I need their pIC50 values.
Give bare numbers, as −log10 of the molar value.

• CCC1CN(C)[C@H]2Cc3c([nH]c4ccccc34)/C(=N/Nc3ccccc3)C[C@H]1[C@@H]2C(=O)OC (some centres unmarked) = 4.84

# get_value(readout='pIC50', item= [NH2][Pt]([NH2])([Cl])[Cl] [CDDP, cisplatin, reference compound] )
4.84

---

Kindly state IC50 for each of the entries shown.
# System: PD-OVCA#49
# Test Description: Growth inhibition, MTS assay, PD-OVCA#49
# Type: cell-based, human
# Assay Context: Homo sapiens, PD-OVCA#49, wild-type BRCA1/2, 48 hours
Numbers only, in µM.

- O=C(c1cc(Cc2n[nH]c(=O)c3ccccc23)ccc1F)N1CCN(C(=O)C2CC2)CC1 [Olaparib, olaparib, reference compound]: 23.6

Give the measured IC50 of CC[C@H]1CN(C)C2Cc3c([nH]c4ccccc34)/C(=N/Nc3ccc(Br)cn3)C[C@@H]1[C@@H]2C(=O)OC [COMP] .
15.1

---

# Test system: PD-OVCA#1 (Lack of exon 17 in BRCA1)
# Test Description: Growth inhibition, MTS assay, PD-OVCA#1
# Format: cell-based, human
# Assay Context: Homo sapiens, PD-OVCA#1, pathogenic mutant BRCA1/2, 48 hours
# Experimental: […] In an embodiment, IC50 values were determined by Sulforhodamine B (SRB) or MTS [3-(4,5-dimethylthiazol-2-yl)-5-(3-carboxymethoxyphenyl)-2-(4-sulfophenyl)-2H-tetrazolium] assay in immortalized and PD-OVCA cells, respectively. […]
Can you tell me IC50 for the items I'm about to list?
Answers are plain numbers, in µM.

• O=C(c1cc(Cc2n[nH]c(=O)c3ccccc23)ccc1F)N1CCN(C(=O)C2CC2)CC1 [Olaparib, olaparib, reference compound] = 31.9

Field: next compound
For the compound shown here, CC[C@H]1CN(C)C2Cc3c([nH]c4ccccc34)/C(=N/Nc3ccc(Br)cn3)C[C@@H]1[C@@H]2C(=O)OC , give the reported IC50.
2.7

---

# System: T47D
# Test Description: Growth inhibition, SRB assay, T47D
# Type: cell-based, human
# Assay Context: Homo sapiens, 48 h, BRCA1 wild-type, 48 hours (second Table 2)
# Method: […] In an embodiment, IC50 values were determined by Sulforhodamine B (SRB) or MTS [3-(4,5-dimethylthiazol-2-yl)-5-(3-carboxymethoxyphenyl)-2-(4-sulfophenyl)-2H-tetrazolium] assay in immortalized and PD-OVCA cells, respectively. […]
pIC50: −log10 of the molar value.
Quantity Name: pIC50

- CCC1CN(C)[C@H]2Cc3c([nH]c4ccccc34)C(=O)C[C@H]1[C@@H]2C(=O)OC (stereo partly shown): < 4.30
- CCC1CN(C)[C@H]2Cc3c([nH]c4ccccc34)/C(=N/Nc3cnccn3)C[C@H]1[C@@H]2C(=O)OC (stereo partly shown): < 4.30
- CC[C@H]1CN(C)C2Cc3c([nH]c4ccccc34)/C(=N/Nc3ccc(Br)cn3)C[C@@H]1[C@@H]2C(=O)OC: 4.94

Now for the compound whose pIC50 we want.
pIC50 lookup needed for C/C=C/C(=O)O[C@@H]1C[C@@H]2[C@@H](CC)CN(C)C(Cc3c1[nH]c1ccccc31)[C@H]2C(=O)OC , thanks.
< 4.30

---

# System: OVCAR-3
# Test Description: Growth inhibition, SRB assay, OVCAR-3
# Format: cell-based, human
# Assay Context: OVCAR-3, wild-type BRCA1/2, 48 hours
Quantity Name: IC50 (µM)
Numbers only, in µM.

Quick one: IC50 for [NH2][Pt]([NH2])([Cl])[Cl] [CDDP, cisplatin, reference compound] ?
3.2

---

# Test system: MDA-MB-468
# Test Description: Growth inhibition, SRB assay, MDA-MB-468
# Format: cell-based, human
# Assay Context: MDA-MB-468, BRCA1 loss of heterozygosity, 48 hours (second Table 2)
# Protocol: […] In an embodiment, IC50 values were determined by Sulforhodamine B (SRB) or MTS [3-(4,5-dimethylthiazol-2-yl)-5-(3-carboxymethoxyphenyl)-2-(4-sulfophenyl)-2H-tetrazolium] assay in immortalized and PD-OVCA cells, respectively. […]
Quantity Name: pIC50
Answers are plain numbers, as −log10 of the molar value.

Completed entries (count: 2):
* [NH2][Pt]([NH2])([Cl])[Cl] [CDDP, cisplatin, reference compound] | 5.64
* CCC1CN(C)[C@H]2Cc3c([nH]c4ccccc34)/C(=N/Nc3ccccc3)C[C@H]1[C@@H]2C(=O)OC (stereo partly drawn) [TH2] | 4.94

API: the following record is the query input.
I'd like to know its pIC50. The compound in question is CCC1CN(C)[C@H]2Cc3c([nH]c4ccccc34)/C(=N/Nc3ccccc3)C[C@H]1[C@@H]2C(=O)OC (stereo partly drawn) [DH2]
4.50
